List of EC50 values.
target: Probable G-protein coupled receptor 142 (Homo sapiens, UniProt Q7Z601); test: Agonist activity at human GPR142 receptor expressed in HEK293 cells assessed as accumulation of inositol phosphate incubated for 1 hr followed by IP1-d2 addition by HTRF assay
Sequence (Q7Z601 whole entry): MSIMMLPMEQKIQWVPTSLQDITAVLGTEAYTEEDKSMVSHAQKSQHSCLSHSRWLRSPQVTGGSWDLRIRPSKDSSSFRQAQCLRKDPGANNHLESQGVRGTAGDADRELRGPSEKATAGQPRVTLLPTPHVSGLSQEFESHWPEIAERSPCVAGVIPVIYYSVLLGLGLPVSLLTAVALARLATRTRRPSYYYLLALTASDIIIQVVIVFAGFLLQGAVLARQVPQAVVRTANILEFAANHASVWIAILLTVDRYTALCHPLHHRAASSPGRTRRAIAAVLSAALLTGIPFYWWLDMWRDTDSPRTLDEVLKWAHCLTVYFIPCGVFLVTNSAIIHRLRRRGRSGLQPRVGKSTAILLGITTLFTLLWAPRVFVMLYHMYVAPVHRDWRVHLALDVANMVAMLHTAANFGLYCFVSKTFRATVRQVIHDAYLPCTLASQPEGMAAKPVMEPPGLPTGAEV
measured.parameter: EC50 (nM)

smiles_record=Cc1ncn(CC#N)c1NC(=O)[C@H]1CCC[C@@H](N(C)C(=O)c2cccc(C(F)(F)F)c2)C1 measured_parameter=EC50 units_symbol=nM recorded_number=93
smiles_record=Cc1ncn(CC2CC2)c1-c1nnc([C@@H]2C[C@H](N(C)C(=O)c3cccc(C(F)(F)F)c3)CCO2)[nH]1 measured_parameter=EC50 units_symbol=nM recorded_number=14
smiles_record=Cc1ncn(CC2CN(C)C2)c1NC(=O)[C@H]1CCC[C@@H](N(C)C(=O)c2cccc(C(F)(F)F)c2)C1 measured_parameter=EC50 units_symbol=nM recorded_number=147
smiles_record=Cc1ncn(CC(F)(F)F)c1NC(=O)[C@H]1CCC[C@@H](N(C)C(=O)c2cccc(OC(F)(F)F)c2)C1 measured_parameter=EC50 units_symbol=nM recorded_number=110

Values were extracted from ChEMBL document CHEMBL4627259.
